The reported measurements were obtained from ChEMBL document CHEMBL4265879.

Experiment: Intrinsic clearance in rat liver microsomes
Assay type: ADME, microsome
Settings: read-out: CLH
MEASUREMENT LABEL: microsomal CLint (µL/min/mg)

# annotated cases, reported microsomal CLint shown
# input molecule: CCOc1ccc(OC)cc1C1(N2CCN(c3ccncc3)CC2)C(=O)N(S(=O)(=O)c2ccc(OC)cn2)c2ccc(C#N)cc21 (centres undefined) ; wanted: its microsomal CLint 290

Also, COc1ccc(S(=O)(=O)N2C(=O)C(c3cccnc3OC)(N3CCN(c4cccnc4)CC3)c3cc(Cl)ccc32)c(OC)c1 (centres undefined) please. 84

(A) COc1ncccc1C1(N2CCN(c3cccnc3)CC2)C(=O)N(S(=O)(=O)c2cccc3cccnc23)c2ccc(C#N)cc21 (centres undefined)
(B) CCOc1cc(OC)ccc1C1(N2CCN(c3ccncc3)CC2)C(=O)N(S(=O)(=O)c2ccc(OC)cc2OC)c2ccc(C#N)cc21 (centres undefined)
For the two items A and B , which reports the higher microsomal CLint value? When you have decided, please share the label of that item. A
